Entry source: paper PMC7826789

system: BRSK2; conditions: Compound Concentration (nM):1000;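 also: KINOMEscan scanMAX binding as percent activity remaining versus control; lower means stronger binding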
metric_name: Percent Control (%)

compound: CCn1c(-c2nonc2N)nc2c(C#CC(C)(C)O)nc(OCCNC)cc21.Cl [GSK949675]
numeric_readout: 91

compound: Nc1ncnc2occ(-c3ccc(NC(=O)Nc4cc(C(F)(F)F)ccc4F)cc3)c12 [GW770249X]
numeric_readout: 88

compound: CCS(=O)(=O)c1ccc(OC)c(Nc2ncc(-c3cccc(F)c3)o2)c1 [GW621970X]
numeric_readout: 89

* * *

test system: ABL1(E255K)-phosphorylated; settings: Compound Concentration (nM):1000

compound: Nc1ncnc2occ(-c3ccc(NC(=O)Nc4cc(C(F)(F)F)ccc4F)cc3)c12 [GW770249X]
Percent Control [%]: 78
--
compound: CN(C)CCNC(=O)Nc1ccc(N(C)c2ccnc(Nc3ccc(CS(C)(=O)=O)cc3)n2)cc1.Cl [GW830900A]
Percent Control [%]: 82
--
compound: C/C(Nc1ccc(S(N)(=O)=O)cc1)=C1/C(=O)Nc2ccccc21 [GW335962X]
Percent Control [%]: 82
--
compound: COc1cc2ncn(-c3cc(O[C@H](C)c4ccccc4Cl)c(C(N)=O)s3)c2cc1OC [GSK237701A]
Percent Control [%]: 81
